B1: POU domain, class 3, transcription factor 3, residues 320 to 388; numbered along this chain, P20264 (parent)
chain: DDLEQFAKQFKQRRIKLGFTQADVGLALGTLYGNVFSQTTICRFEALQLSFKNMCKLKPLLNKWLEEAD

- Variants of: B1
- Assay Details: abundance fitness (aPCA) (normalised: wild type 0, dead -1); higher = more abundant; growth selection in yeast, the domain comes from the species named
- Condition Details: Homo sapiens

- Seq String: "DDLEQFAKQFKQRRIKLGFTQADVGLQLGTLYGNVFSQTTICRFEALQLSFKNMCKLKPLLNKWLEEAD [A27Q]"
  abundance fitness: 0.228
- Seq String: "DDLEQFAKQFKQRRIKLGFTQADVGLALGDLYGNVFSQTTICRFEALQLSFKNMCKLKPLLNKWLEEAD [T30D]"
  abundance fitness: -0.062
- Seq String: "DDLEQFAKQFKQRRIKLGFTQADVGLALGTLYGNLFSQTTICRFEALQLSFKNMCKLKPLLNKWLEEAD [V35L]"
  abundance fitness: -0.462
- Seq String: "DDLEQFAKQFKQRRIKLGFTQADVGLALGTLYGNYFSQTTICRFEALQLSFKNMCKLKPLLNKWLEEAD [V35Y]"
  abundance fitness: -0.108
- Seq String: "DDLEQFAKQFKQRRIKLGFTQADVGLALGTLYGNVFSVTTICRFEALQLSFKNMCKLKPLLNKWLEEAD [Q38V]"
  abundance fitness: -0.421
- Seq String: "DDLEQFAKQFKQRRIKLGFTQADVVLALGTLYGNVFSQTTICRFEALQLSFKNMCKLKPLLNKWLEEAD [G25V]"
  abundance fitness: -0.815
- Seq String: "DDLEQFAKQFKQRRIKLGFTQADVGLALGTLYGNVFSRTTICRFEALQLSFKNMCKLKPLLNKWLEEAD [Q38R]"
  abundance fitness: -0.103
- Seq String: "DDLEQFAKQFKQRRIKLGFTQADVGLALGTLYGNPFSQTTICRFEALQLSFKNMCKLKPLLNKWLEEAD [V35P]"
  abundance fitness: -0.105
- Seq String: "DDLEQFAKQFKQRRIKLGFTQADVGLALGTYYGNVFSQTTICRFEALQLSFKNMCKLKPLLNKWLEEAD [L31Y]"
  abundance fitness: -0.334
- Seq String: "DDLEQFAKQFKQRRIKLGFTQADVGLALWTLYGNVFSQTTICRFEALQLSFKNMCKLKPLLNKWLEEAD [G29W]"
  abundance fitness: -0.478
- Seq String: "DDLEQFAKQFKQRRIKLGFTQADVGLALGTLYGNVFSQTRICRFEALQLSFKNMCKLKPLLNKWLEEAD [T40R]"
  abundance fitness: -0.583
- Seq String: "DDLEQFAKQFKQRRIKLGFTQADVGLALGTLYGNEFSQTTICRFEALQLSFKNMCKLKPLLNKWLEEAD [V35E]"
  abundance fitness: 0.172
- Seq String: "DDLEQFAKQFKQRRIKLGFTQADVGLALGTLLGNVFSQTTICRFEALQLSFKNMCKLKPLLNKWLEEAD [Y32L]"
  abundance fitness: 0.017
- Seq String: "DDLEQFAKQFKQRRIKLGFTQANVGLALGTLYGNVFSQTTICRFEALQLSFKNMCKLKPLLNKWLEEAD [D23N]"
  abundance fitness: -0.687
- Seq String: "DDLEQFAKQFKQRRIKLGFTQADVGLALGTLYGNRFSQTTICRFEALQLSFKNMCKLKPLLNKWLEEAD [V35R]"
  abundance fitness: -0.009
- Seq String: "DDLEQFAKQFKQRRIKLGFTQADVGLALGTLYGNVFSETTICRFEALQLSFKNMCKLKPLLNKWLEEAD [Q38E]"
  abundance fitness: 0.192
- Seq String: "DDLEQFAKQFKQRRIKLGFTQADVGLALGTLYGNVFAQTTICRFEALQLSFKNMCKLKPLLNKWLEEAD [S37A]"
  abundance fitness: -0.246
- Seq String: "DDLEQFAKQFKQRRIKLGFTQADVGLALGTLYGNVFSQTTICEFEALQLSFKNMCKLKPLLNKWLEEAD [R43E]"
  abundance fitness: -0.076
- Seq String: "DDLEQFAKQFKQRRIKLGFTQADVGLALGTLYGNVWSQTTICRFEALQLSFKNMCKLKPLLNKWLEEAD [F36W]"
  abundance fitness: -0.714
- Seq String: "DDLEQFAKQFKQRRIKLGFTQADVGLALGTLYGNVFSQTTIGRFEALQLSFKNMCKLKPLLNKWLEEAD [C42G]"
  abundance fitness: -0.014
